Data provenance: paper PMC2811219

Listed here are compounds together with their documented pIC50.
System: CEM cells
assay-protocol: CEM cell growth
Assay type: cell-based, human
cond: read-out: IC50 (CEM), concentration that inhibit cell growth by 50%
pIC50 (log units): -log10 of the concentration in mol/L.

Incoming: Provide measured pIC50 value, entry: COC(=O)[C@H](C)NP(=O)(OCCOCn1cnc2c(=O)[nH]c(N)nc21)Oc1cccc2ccccc12 (stereo partly shown)
Outgoing: 4.24

Incoming: Name the recorded pIC50 of the compound listed here: C[C@H](NP(=O)(OCCOCn1cnc2c(=O)[nH]c(N)nc21)Oc1ccccc1)C(=O)OCc1ccccc1 (stereo partly shown)
Outgoing: 4.48

Incoming: Please indicate pIC50 recorded for CC(C)OC(=O)[C@H](C)NP(=O)(OCCOCn1cnc2c(=O)[nH]c(N)nc21)Oc1cccc2ccccc12 (stereo partly shown)
Outgoing: 4.44

Incoming: Tell me pIC50 reported for CCOC(=O)[C@H](C)NP(=O)(OCCOCn1cnc2c(=O)[nH]c(N)nc21)Oc1cccc2ccccc12 (stereo partly shown)
Outgoing: 4.49

----------
System: PBMC
assay-protocol: PBMC MTS viability staining
Type: cell-based, human
readout-type: CC50 (µM)
Give the value in µM but do not write µM after it.

Incoming: Assign CC50 to the following record: COC(=O)[C@H](C)NP(=O)(OCCOCn1cnc2c(=O)[nH]c(N)nc21)Oc1cccc2ccccc12 (stereo partly shown)
Outgoing: 352

----------
assay-protocol: in vitro
Type: cell-based, human
cond: human
readout-type: CC50

Incoming: Give the reported CC50 for this compound. Nc1nc2c(ncn2COCCO)c(=O)[nH]1 [ACV, acyclovir, reference compound]
Outgoing: > 150 µM

----------
System: CEM cells
assay-protocol: in vitro
Assay type: cell-based, human
Measured CC50, listed per entry.

C[C@H](NP(=O)(OCCOCn1cnc2c(=O)[nH]c(N)nc21)Oc1ccccc1)C(=O)OCc1ccccc1 (stereo partly shown) ... > 150 µM
COC(=O)[C@H](C)NP(=O)(OCCOCn1cnc2c(=O)[nH]c(N)nc21)Oc1cccc2ccccc12 (stereo partly shown) ... > 150 µM
CCOC(=O)[C@H](C)NP(=O)(OCCOCn1cnc2c(=O)[nH]c(N)nc21)Oc1cccc2ccccc12 (stereo partly shown) ... > 150 µM

Let's switch to this compound now.
Incoming: Check the records and state CC50 for CC(C)OC(=O)[C@H](C)NP(=O)(OCCOCn1cnc2c(=O)[nH]c(N)nc21)Oc1cccc2ccccc12 (stereo partly shown)
Outgoing: > 150 µM

----------
System: PBMC
assay-protocol: PBMC MTS viability staining
Type: cell-based, human
cond: read-out: CC50, 50% cytostatic concentration; PBMC; MTS viability staining method
readout-type: CC50 (µM)
Express your answer in µM, writing the number without its unit.

Incoming: Please give the documented CC50 of C[C@H](NP(=O)(OCCOCn1cnc2c(=O)[nH]c(N)nc21)Oc1ccccc1)C(=O)OCc1ccccc1 (stereo partly shown)
Outgoing: 319
